Data provenance is ChEMBL document CHEMBL1155812.

Please respond with reported IC50 for every item in the list.
assay: Inhibition of drosophila golgi alpha-mannosidase 2
Give bare numbers, in µM.

O[C@H]1[C@H]2[C@H](O)CCCN2C[C@H]1O [TRIDOLGOSIR]    0.04

// next item, IC50 requested
Looking up "OC[C@H](NC[C@H]1NC[C@H](O)[C@@H]1O)c1ccccc1" , I found its IC50 recorded as 80

---

assay: Inhibition of jack bean alpha-mannosidase; design: species or system Canavalia ensiformis
Quantity: IC50 (nM)
Give bare numbers, in nM.

Form field IC50, entry "O[C@H]1[C@H]2[C@H](O)CCCN2C[C@H]1O" : 40
